# subject of test: human Y4 receptor (human, UniProt P50391 1-375)
# Sequence (P50391 whole entry): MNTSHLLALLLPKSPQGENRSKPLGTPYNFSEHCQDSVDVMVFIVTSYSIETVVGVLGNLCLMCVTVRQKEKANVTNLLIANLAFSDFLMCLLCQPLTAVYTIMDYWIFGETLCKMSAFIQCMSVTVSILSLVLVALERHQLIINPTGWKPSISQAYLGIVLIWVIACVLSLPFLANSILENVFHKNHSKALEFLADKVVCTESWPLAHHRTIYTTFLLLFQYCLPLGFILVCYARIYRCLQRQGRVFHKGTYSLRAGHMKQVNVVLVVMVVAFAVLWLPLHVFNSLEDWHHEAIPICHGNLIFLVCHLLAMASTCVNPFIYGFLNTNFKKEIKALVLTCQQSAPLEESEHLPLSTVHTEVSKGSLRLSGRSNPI
# procedure summary: 125I-PP displacement
pIC50: −log10 of the molar value.

- binder: "GAPLEPKYPGDDATPEELAKYAAELRRYINKLTRPRY [4060142]"
  pIC50: 9.84
- binder: "AAPLEPVYPGDNATPEELARYAAELRRYINKLTRPRY [4060135]"
  pIC50: 9.71
- binder: "AAPLEPHYPGDNATPEEMARYYSELRRYINKLTRPRY [4059965]"
  pIC50: 10.08
- binder: "PAPLEPHAPGDNATPEEMAKYAAELRRYINKLTRPRY [4059938]"
  pIC50: 9.89
- binder: "AAPLEPHYPGDNATPEQMARYYSELRRYINKLTRPRY [4059955]"
  pIC50: 10.36
- binder: "PAPLEPTYPGDDATPEQLAKYAAELRRYINKLTRPRY [4060208]"
  pIC50: 9.90
- binder: "GAPLEPHYPGDNATPEQLARYYSELRRYINKLTRPRY [4059967]"
  pIC50: 10.19
